I'd appreciate it if you could supply growth inhibition values for the items below.
Test: NCI Yeast Anticancer Drug Screen. Data for the bub3 strain (AID 167)
Measurement conditions: S. cerevisiae bub3 mutant strain, at 50.0 µM, active compounds read high
Compounds without any hit were thinned out: in the full panel of roughly 79,000, 15% have a hit.
One number for each entry, in %.

[[record]]
compound = "CCC(C)n1c(C)nc2c(N)cc(C(F)(F)F)cc21 (stereo unspecified)"
result_type = "growth inhibition"
observed_value = 98

[[record]]
compound = "CCN(CC)CCOc1c(Cl)c(Cl)c(Cl)c(Cl)c1Cl"
result_type = "growth inhibition"
observed_value = 64.2

[[record]]
compound = "Cc1sc(Cc2ccccc2)nc1-c1ccc(N=Cc2ccc(N(CCOS(C)(=O)=O)CCOS(C)(=O)=O)cc2)cc1"
result_type = "growth inhibition"
observed_value = 91.3


Please report growth inhibition for every entry that follows.
1. C1=C(c2ccccc2)CCc2c1ccc1ccccc21
2. COc1ccc(C2=CCC3C4CC=C5CC(O)CCC5(C)C4CCC23C)s1 (stereo unspecified)
3. N#CSc1ccc(O)cc1

**Result**
16
66
96.4

Please report growth inhibition for every entry that follows.
1. CC1=C(C)C(=O)C(CNCc2ccccc2)=[C-]C1=O.[Co].[c-]1[c-][c-][cH-][c-]1
2. Cc1cc(N=Nc2ccncc2C)ccc1N
3. CCC(=O)N(CCC(C)C)c1ccccc1
4. CN(C)CCC(=O)N1C/C(=C\c2ccc(Cl)c(Cl)c2)C(=O)/C(=C/c2ccc(Cl)c(Cl)c2)C1
5. CCOC(=O)c1c(SCC#N)n(-c2ccccc2)c(=S)n(-c2ccccc2)c1=O

**Result**
1: 19.1; 2: 89; 3: -18.6; 4: 91.3; 5: 88.5
